# measured-on: T1, recombinant human IL-17A (human, UniProt Q16552 24-155)
# T1 construct: Bought recombinant protein (Peprotech AF-200-17); also called Peprotech AF-200-17
# procedure-text: SPR (BIAcore T200), IL-17A coupled to CM5 chip, single-cycle kinetics;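 also: VH domain analytes, kinetic constants obtained by fitting blank-corrected sensorgrams to a 1:1 binding model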
experimental-readout: Kd (nM)
Provide the reading as a plain figure in nM.

Look over these answered cases.
Clone 1.8 (VHH, Human single VH domain) VHH: QVQLVESGGGLVQPGGSLRLSCAASGFTFSSYGMYWVRQAPGKGLEWVAKIEQDGSEKYYVDSVKGRFTISRDNAKNSLFLQMNSLRAEDTAVYYCAKGEILPLYFDYWGQGTLVTVSS :: 0.616
Clone 1.9 (VHH, Human single VH domain) VHH: QVQLVESGGGLVQPGGSLRLSCAASGFTFSSYGMYWVRQAPGKGLEWVAEIKQDGSEKYYVDSVKGRFTISRDNAKNSLYLQMNSLRAEDTAVYYCAKGEILPLYFDYWGQGTLVTVSS :: 0.529
VH 1.17.1 (clone 1.17 expressed from phagemid vector: with linker residues and His tag) (VHH, Human single VH domain) VHH: EVQLVESGGGLVQPGGSLRLSCAASGFTFSSYSMYWVRQAPGKGLEWVAEIKPTGSVQYYVSDVKGRFTISRDNAKNSLYLQMNSLRAEDTAVYYCAKGEILPLYFDYWGQGTLVTVSS :: 0.5

Now for another entry.
[ask] Find the recorded Kd belonging to VH 1.18.1 (clone 1.18 expressed from phagemid vector: with linker residues and His tag) (VHH, Human single VH domain) VHH: EVQLVESGGGLVQPGGSLRLSCAASGFTFSSYSMYWVRQAPGKGLEWVAEIKQDGSVQYYVGGVKGRFTISRDNAKNSLYLQMNSLRAEDTAVYYCAKGEILPLYFDYWGQGTLVTVSS and report it.
[reply] 0.366

Entry source: patent US20200347127A1
